Attribute: hPTHR-2 EC50 (nM), luciferase reporter gene assay
# system-tested: human parathyroid hormone receptor 2 (human, UniProt P49190)
# assay-overview: cell-based or functional assay
Non-standard residues stand in square brackets, D forms with d. No end group written: not given here. 1Nal = N[C@@H](Cc1cccc2ccccc12)C(=O)O; β3hI = CC[C@H](C)[C@H](N)CC(=O)O; Nle = CCCC[C@H](N)C(=O)O; Aib = CC(C)(N)C(=O)O; βAla = NCCC(=O)O
Reply with just the number (in nM).

binder	reported-measurement
[Aib]VSEIQL[Nle]HNLGKHLNS[β3hI]ERVE[1Nal]LRKLLQDV-NH2 [[Aib^1, Nle^8, β-hIle^18, 1-Nal^23, Leu^27] hPTH (1-31)-NH2]	18
SVSEIQL[Nle]HNLGKHLN[βAla][Nle]ERVE[1Nal]LRKLLQDVHNF-NH2 [[Nle^8,18, β-Ala^17, 1-Nal^23, Leu^27] hPTH (1-34)-NH2]	47

Read the next record carefully.
Reported hPTHR-2 EC50 (nM), luciferase reporter gene assay, binder SVSEIQL[Nle]HNL[Aib][Aib]HLNS[β3hI]ERVE[1Nal]LRKLLQDVHNF-NH2 [[Nle^8, Aib^12,13, β-hIle^18, 1-Nal^23, Leu^27] hPTH (1-34)-NH2] : ____ 34
